target-under-test: MPER25c (spike S2 membrane proximal region peptide) MPER (Severe acute respiratory syndrome coronavirus 2), P0DTC2
assay-remarks: SPR
condition-parameters: modification not given
property-name: Kd (nM)
I only need the number, in nM, no unit after it.

stdin: Which measured Kd value corresponds to FGAGAALQIPFAMQMAYRF [PN19 (spike S2 internal fusion peptide)] ?
stdout: 9.44
